Values compiled from PubChem BioAssay.

ASSAY NOTES: Restrictive medium S. cerevisiae growth inhibition, OD615, pilot screen of yeast lifespan reduction project, restrictive growth control (AID 706);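 also: modified DeaD lifespan yeast strain shifted to restrictive glucose medium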
EXPERIMENTAL CONDITIONS: OD615, 48 h, at 10 µM, stronger effect = higher value
Quick reference: growth inhibition of the listed items.
Note: unit % is implicit; provide only the numeric part.

Consider the reported growth inhibition for these compounds:
{"COMPOUND": "CC1=C(C(=O)Nc2ccccc2)C(c2ccco2)C(C#N)=C(SCc2ccccc2)N1 (stereo not drawn)", "growth inhibition (%)": 14.5}
{"COMPOUND": "Cc1cc(OCC(=O)N(C)C)c2c(-c3ccccc3)cc(=O)oc2c1", "growth inhibition (%)": 2.71}
{"COMPOUND": "Cc1onc(-c2ccccc2Cl)c1C(=O)NCCN1Cc2ccccc2C1=O", "growth inhibition (%)": 4.3}
{"COMPOUND": "CCOC(=O)c1oc2cc(O)c(CC)cc2c(=O)c1-c1ccc2c(c1)OCCO2", "growth inhibition (%)": -16.3}
{"COMPOUND": "CCOC(=O)NC(Nc1ccc(C)cn1)(C(F)(F)F)C(F)(F)F", "growth inhibition (%)": 4.23}
{"COMPOUND": "COC(=O)CN(n1cnnc1)S(=O)(=O)c1ccccc1", "growth inhibition (%)": -4.21}
{"COMPOUND": "CC1(C)CC(=O)N(CC(=O)O)c2ccccc2S1(=O)=O", "growth inhibition (%)": 4.7}
{"COMPOUND": "Cc1cc(N2CCN(C(=O)c3ccco3)CC2)n2nc(C)nc2n1", "growth inhibition (%)": 5.6}

Query growth inhibition for Cc1ccc(C)c(S(=O)(=O)NC(CC(C)C)C(=O)O)c1 (stereo not drawn)
-29.3

Query growth inhibition for CCOC(=O)C1=C(C)Nc2nc(C)nn2C1c1ccc(C)cc1 (stereo not drawn)
7.16

Query growth inhibition for Cc1ccccc1-n1c(Cn2c(=O)sc3ccccc32)nnc1SCC(=O)NCC1CCCO1 (stereo not drawn)
-12.2

Query growth inhibition for Cc1nn(C)c(C)c1S(=O)(=O)N(CC(=O)Nc1ccc2c(c1)OCO2)c1ccc(C(C)C)cc1
-7.85

Query growth inhibition for COc1ccc(OC)c(NC(=O)CNC(=O)Cn2ccc3ccccc3c2=O)c1
10.5

Query growth inhibition for COC(=O)c1ccsc1NC(=O)C1=COCCO1
-1.36

Query growth inhibition for COC1=CC(=O)OC12CCCCC2
-2.73

Query growth inhibition for COc1cc2c(c(O)c1OC)C(=O)C(OC)CCC2 (stereo not drawn)
-2.16

Query growth inhibition for COc1ccc(C)cc1NC(=O)CN(c1ccc(F)cc1)S(C)(=O)=O
-18.5

Query growth inhibition for Cc1ccc(-c2nc(CS(=O)CC(=O)NCc3ccccc3)c(C)o2)cc1 (stereo not drawn)
-1.83

Query growth inhibition for Cc1ccc(NC(=O)NCCN2C(=O)C3C4C=CC(C4)C3C2=O)cc1 (stereo not drawn)
10.9

----------
ASSAY NOTES: growth suppression of PTEN-deleted HCT116, pilot screen, cell-based, HCT116 clonal line, CellTiter-Glo (AID 824);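 also: 0% = 20 µM Hyamine control and 100% = vehicle cell control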
EXPERIMENTAL CONDITIONS: 60 h, at 10 µM, stronger effect = lower value
Results filed as inconclusive are left out.
MEASUREMENT NAME: viability (%)
Note: unit % is implicit; provide only the numeric part.

{"COMPOUND": "N#Cc1c2n(c3c(=O)n(Cc4ccc(Cl)cc4)cnc13)CCCC2", "viability / %": 87}
{"COMPOUND": "CCCCn1c(=O)cc(N2CCOCC2)[nH]c1=O", "viability / %": 94.3}
{"COMPOUND": "O=C(NC1CCCCCCC1)c1ccc(CNc2c(N3CCOCC3)c(=O)c2=O)cc1", "viability / %": 95.6}
{"COMPOUND": "CCOc1ccc(N2C(=O)CC(Sc3nc(C)cc(C)n3)C2=O)cc1 (stereo unspecified)", "viability / %": 98.9}

Query viability for Nc1nnc(N2CCc3ccccc32)s1
102

Query viability for Cc1ccc2c(c1)N(CCCC(=O)NCc1ccc3c(c1)OCO3)C(=O)CO2
83.9

Query viability for COC(=O)c1ccc(OCC(O)CN(CC(C)C)CC(C)C)cc1 (stereo unspecified)
86.4

Query viability for CN(C)S(=O)(=O)c1ccc(NC(=O)C2COc3ccccc3O2)cc1 (stereo unspecified)
83.8

Query viability for Cc1nc2sc(C(c3ccc(Cl)cc3)N3CCN(CCO)CC3)c(O)n2n1 (stereo unspecified)
90.2

Query viability for CCC(=O)N1CC2(C)CN(C(=O)CC)CC(C)(C1)C2
97

Query viability for Cc1ccc(C2/C(=C(/O)c3ccccc3)C(=O)C(=O)N2CCN2CCOCC2)o1 (stereo unspecified)
96.7
